target: human Claudin18.2 (human, UniProt P56856-2 1-261); assay: cell-based or functional assay
Each entry below carries its recorded ADCC Max killing rate %, Ba/F3-Claudin18.2 target cells.
A number alone suffices; assume %.

>  <binder>
humanized antibody 1E9.2-hz11 (antibody, human IgG1, kappa, V domains shown, human IgG1 / kappa) VH: EVQLVESGGGLVKPGGSLRLSCAASGFSFSNSAMSWVRQAPGKGLEWVSTISSGDSYTYYADSVKGRFTISRDNAKNSLYLQMNSLRAEDTAVYYCARQGYGNALDYWGQGTLVTVSS VL: DIVMTQSPDSLAVSLGERATINCKSSQSLLNSGNQKNYLTWYQQKPGQPPKLLIYWSSTRESGVPDRFSGSGSGTDFTLTISSLQAEDFAVYYCQNDYYYPLTFGGGTKVEIKR

>  <unit info>
%

>  <quantitative result>
60.2

$$$$

Then there is this binder:
Lab note: measured ADCC Max killing rate %, Ba/F3-Claudin18.2 target cells of humanized antibody 1E9.2-hz41 (antibody, human IgG1, kappa, V domains shown, Human IgG1 / kappa constant regions) VH: EVQLVESGGGLVKPGGSLRLSCAASGFSFSNSAMSWVRQAPGKGLEGVATISSGDSYTYYPDSVKGRFTISRDNAKNSLYLQMNSLRAEDTAVYYCARQGYGNALDYWGQGTLVTVSS VL: DIVMTQSPDSLAVSLGERATINCKSSQSLLNSGNQKNYLTWYQQKPGQPPKLLIYWSSTRESGVPDRFSGSGSGTDFTLTISSLQAEDFAVYYCQNDYYYPLTFGGGTKVEIKR was 55.4
